Hello, the source for this data is patent US10273267B2, in case you need it.

- test-target: porcine pancreatic elastase (Sus scrofa, UniProt P00772)
- Construct: purchased Sigma, USA
- Sequence (P00772 27-266): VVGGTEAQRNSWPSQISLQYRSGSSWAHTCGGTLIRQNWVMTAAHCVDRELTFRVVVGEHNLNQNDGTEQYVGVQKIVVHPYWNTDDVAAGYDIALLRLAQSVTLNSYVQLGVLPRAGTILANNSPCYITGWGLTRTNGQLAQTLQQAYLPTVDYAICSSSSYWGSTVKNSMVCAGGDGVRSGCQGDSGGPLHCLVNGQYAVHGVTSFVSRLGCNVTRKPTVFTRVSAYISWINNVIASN
- assay-remarks: Inhibition of porcine pancreatic elastase (hydrolysis of MeOSuc-AAA-pNA)
- Assay type: biochemical
- experimental-context: ratio of PPE IC50 to hNE IC50
Where a SMILES comes first, the peptide text is derived from it. [ ]: non-standard residue; d: D form. Gly(octyl) = CCCCCCCC[C@H](N)C(=O)O; Nlys = NCCCCNCC(=O)O
Reported hNE/PPE selectivity values for the following compounds.
Field format: numeric only.

// solved cases for hNE/PPE selectivity follow
compound	hNE/PPE selectivity
CCCCCCCC[C@@H]1NC(=O)[C@H](CCCCN)NC(=O)[C@@H](CO)NC(=O)[C@H]([C@@H](C)O)NC(=O)[C@H](CCCCN)NC(=O)[C@H](CCC(N)=O)NC(=O)[C@@H]2CCCN2C(=O)[C@@H]2CCCN2C(=O)[C@H]([C@@H](C)CC)NC(=O)[C@H](CO)NC(=O)[C@H](C)NC(=O)[C@H]([C@@H](C)O)NC(=O)[C@H](CCC(=O)O)NC1=O [Example 32] (cyclo([Gly(octyl)]ETASIPPQKT[dS]K))	4036
CCCCCCCC[C@@H]1NC(=O)[C@@H]2CCCN2C(=O)[C@H]2CCCN2C(=O)[C@H]([C@@H](C)O)NC(=O)[C@H](CCCCN)NC(=O)[C@H](CCC(N)=O)NC(=O)CN(CCCCN)C(=O)[C@@H]2CCCN2C(=O)[C@H]([C@@H](C)CC)NC(=O)[C@H](CO)NC(=O)[C@H](C)NC(=O)[C@H]([C@@H](C)O)NC(=O)[C@H](CCC(=O)O)NC1=O [Example 35] (cyclo([Gly(octyl)]ETASIP[Nlys]QKT[dP]P))	208

Let us examine a further case.
Check the records and state hNE/PPE selectivity for CC[C@H](C)[C@@H]1NC(=O)[C@H](CO)NC(=O)[C@H](C)NC(=O)[C@H]([C@@H](C)O)NC(=O)[C@H](CCC(=O)O)NC(=O)[C@H](CCC(=O)N[C@@H](Cc2ccccc2)C(=O)O)NC(=O)[C@@H]2CCCN2C(=O)[C@H]2CCCN2C(=O)[C@H](Cc2ccc(O)cc2)NC(=O)[C@H](CCCCN)NC(=O)[C@H](CCC(N)=O)NC(=O)[C@@H]2CCCN2C(=O)[C@@H]2CCCN2C1=O [Example 18] (cyclo(E(Phe)ETASIPPQKY[dP]P))
4660

----------
*1 amine or outer side, *2 acyl side, *3 side chain or, on linkers, in order; H or OH if unused. Where a SMILES comes first, the peptide text is derived from it. [ ]: non-standard residue; d: D form. X3 = O=C(CC[C@H](Cc1ccc(O)cc1)N[*:1])[*:2]; Gly(octyl) = CCCCCCCC[C@H](N)C(=O)O; Pip = O=C(O)[C@@H]1CCCCN1
Reported pIC50, human proteinase 3 (Homo sapiens).
In textbook form, pIC50 equals minus log to base ten of the concentration in mol/L.

compound	pIC50
CCCCCCCC[C@@H]1NC(=O)[C@@H]2CCCN2C(=O)[C@H]2CCCN2C(=O)CC[C@H](Cc2ccc(O)cc2)NC(=O)[C@H](CCCCN)NC(=O)[C@H](CCC(N)=O)NC(=O)[C@@H]2CCCN2C(=O)[C@@H]2CCCN2C(=O)[C@H]([C@@H](C)CC)NC(=O)[C@H](CO)NC(=O)[C@H](C)NC(=O)[C@H]([C@@H](C)O)NC(=O)[C@H](CCC(=O)O)NC1=O [Example 8] (cyclo([Gly(octyl)]ETASIPPQK[X3][dP]P))	5.48
CCCCCCCC[C@@H]1NC(=O)[C@@H]2CCCN2C(=O)[C@H]2CCCN2C(=O)[C@H]([C@@H](C)O)NC(=O)[C@H](CCCCN)NC(=O)[C@H](CCC(N)=O)NC(=O)[C@@H]2CCCCN2C(=O)[C@@H]2CCCN2C(=O)[C@H]([C@@H](C)CC)NC(=O)[C@H](CO)NC(=O)[C@H](C)NC(=O)[C@H]([C@@H](C)O)NC(=O)[C@H](CCC(=O)O)NC1=O [Example 45] (cyclo([Gly(octyl)]ETASIP[Pip]QKT[dP]P))	6.05

Kindly consider the entry below.
Item CCCCCCCC[C@@H]1NC(=O)[C@H](C)NC(=O)[C@@H](C)NC(=O)[C@H]([C@@H](C)O)NC(=O)[C@H](CCCCN)NC(=O)[C@H](CCC(N)=O)NC(=O)[C@@H]2CCCN2C(=O)[C@@H]2CCCN2C(=O)[C@H]([C@@H](C)CC)NC(=O)[C@H](CO)NC(=O)[C@H](C)NC(=O)[C@H]([C@@H](C)O)NC(=O)[C@H](CCC(=O)O)NC1=O [Example 20] (cyclo([Gly(octyl)]ETASIPPQKT[dA]A)) : provide pIC50
5.05
